MIC E. coli BW25113 WUXI::MIC values by entry
# Test system: E. coli BW25113
# Test summary: Minimum Inhibitory Concentration (MIC) determination, E. coli BW25113
# Assay type: cell-based
# Parameters: unit not given here
# Conditions used: LB broth, 5×10^5 CFU/ml, 37° C., 18 hours, scored by eye
Bridge positions count the residues as written; N and C are the ends. Square brackets hold non-standard residues; d marks the D form. Peptide text beside a SMILES is read from it. 1Nal = N[C@@H](Cc1cccc2ccccc12)C(=O)O; d1Nal = N[C@H](Cc1cccc2ccccc12)C(=O)O; dHis(π-Me) = Cn1cncc1C[C@@H](N)C(=O)O; His(π-Me) = Cn1cncc1C[C@H](N)C(=O)O; NMeY = CN[C@@H](Cc1ccc(O)cc1)C(=O)O; dNMeY = CN[C@H](Cc1ccc(O)cc1)C(=O)O; NMeR = CN[C@@H](CCCNC(=N)N)C(=O)O; dAbu = CC[C@@H](N)C(=O)O; Abu = CC[C@H](N)C(=O)O
Please reply with the value in numeric form only.

Compound	Study target	Property	Measurement
CC[C@H]1NC(=O)[C@@H](Cc2ccccc2)NC(=O)CSC[C@H](C(=O)NCC(N)=O)NC(=O)[C@@H](Cc2cncn2C)NC(=O)[C@@H](CCCNC(=N)N)NC(=O)[C@@H](Cc2c[nH]cn2)NC(=O)[C@@H](Cc2ccc(O)cc2)N(C)C(=O)[C@@H](CCCNC(=N)N)NC(=O)[C@@H](CO)NC(=O)[C@@H](CCCNC(=N)N)NC(=O)[C@@H](Cc2c[nH]cn2)NC(=O)[C@@H](Cc2cccc3ccccc23)NC1=O [Compound 28] ({CH2CO}-[dF][dAbu][d1Nal][dH][dR][dS][dR][dNMeY][dH][dR][dHis(π-Me)][dC]G-NH2; thioether N-12)	E. coli BW25113	MIC E. coli BW25113 WUXI::MIC	6.3
CC[C@@H]1NC(=O)[C@H](Cc2ccccc2)NC(=O)CSC[C@@H](C(=O)NCC(N)=O)NC(=O)[C@H](Cc2cncn2C)NC(=O)[C@H](CCCNC(=N)N)N(C)C(=O)[C@H](Cc2c[nH]cn2)NC(=O)[C@H](Cc2ccc(O)cc2)N(C)C(=O)[C@H](CCCNC(=N)N)NC(=O)[C@H](CO)NC(=O)CNC(=O)[C@H](Cc2c[nH]cn2)NC(=O)[C@H](Cc2cccc3ccccc23)NC1=O [Compound 34] ({CH2CO}-F[Abu][1Nal]HGSR[NMeY]H[NMeR][His(π-Me)]CG-NH2; thioether N-12)	E. coli BW25113	MIC E. coli BW25113 WUXI::MIC	100
CC[C@@H]1NC(=O)[C@H](Cc2ccccc2)NC(=O)CSC[C@@H](C(=O)NCC(N)=O)NC(=O)[C@H](Cc2cncn2C)NC(=O)[C@H](C)NC(=O)[C@H](Cc2c[nH]cn2)NC(=O)[C@H](Cc2ccc(O)cc2)N(C)C(=O)[C@H](CCCNC(=N)N)NC(=O)[C@H](CO)NC(=O)CNC(=O)[C@H](Cc2c[nH]cn2)NC(=O)[C@H](Cc2cccc3ccccc23)NC1=O (stereo in doubt) [Compound 38]	E. coli BW25113	MIC E. coli BW25113 WUXI::MIC	100

Write down MIC E. coli BW25113 WUXI::MIC measured for item CC[C@@H]1NC(=O)[C@H](Cc2ccccc2)NC(=O)CSC[C@@H](C(=O)NCC(N)=O)NC(=O)[C@H](Cc2cncn2C)NC(=O)[C@H](CCCNC(=N)N)NC(=O)[C@H](Cc2cnc[nH]2)NC(=O)[C@H](Cc2ccccc2)N(C)C(=O)[C@H](CCCNC(=N)N)NC(=O)[C@H](CO)NC(=O)CNC(=O)[C@H](Cc2cnc[nH]2)NC(=O)[C@H](Cc2cccc3ccccc23)NC1=O (racemic) [Compound 10] 8

Give recorded MIC E. coli BW25113 WUXI::MIC. CC[C@@H]1NC(=O)[C@H](Cc2ccccc2)NC(=O)CSC[C@@H](C(=O)NCC(N)=O)NC(=O)[C@H](Cc2cncn2C)NC(=O)[C@H](CCCNC(=N)N)NC(=O)[C@H](Cc2c[nH]cn2)NC(=O)[C@H](Cc2ccc(O)cc2)N(C)C(=O)[C@H](CCCNC(=N)N)NC(=O)[C@H](CO)NC(=O)[C@@H](C)NC(=O)[C@H](Cc2c[nH]cn2)NC(=O)[C@H](Cc2cccc3ccccc23)NC1=O [Compound 26] ({CH2CO}-F[Abu][1Nal]H[dA]SR[NMeY]HR[His(π-Me)]CG-NH2; thioether N-12) 6.3
